Species on record: Rattus norvegicus
Experiment: Open TG-GATES - Regimen: Daily Repeat
Type: toxicity, organism-based, Sprague-Dawley
Design: regimen Daily Repeat, gender Male, age 6 weeks
Conditions: in vivo, po, 300 mg/kg, 72 h, tissue Plasma, route gavage, dose level Middle, time 3 day
measureName: log10(DBIL) (log10 of the value in mg/dL)
Note: values are log10 of DBIL expressed in mg/dL.

Below: 5 compounds and their reported log10(DBIL).
| compound | log10(DBIL) |
| --- | --- |
| CN/C(=N/CCSCc1nc[nH]c1C)NC#N [CIMETIDINE] | -1.00 |
| CNC(=C[N+](=O)[O-])NCCSCc1ccc(CN(C)C)o1 [RANITIDINE] | -1.05 |
| Cc1nnc2n1-c1ccc(Cl)cc1C(c1ccccc1Cl)=NC2 [TRIAZOLAM] | -1.85 |
| COC(=O)C1=C(C)NC(C)=C(C(=O)OC)C1c1ccccc1[N+](=O)[O-] [NIFEDIPINE] | -1.74 |
| O=C(OC[C@H]1O[C@@H](OC(=O)c2cc(O)c(O)c(OC(=O)c3cc(O)c(O)c(O)c3)c2)[C@H](OC(=O)c2cc(O)c(O)c(OC(=O)c3cc(O)c(O)c(O)c3)c2)[C@@H](OC(=O)c2cc(O)c(O)c(OC(=O)c3cc(O)c(O)c(O)c3)c2)[C@@H]1OC(=O)c1cc(O)c(O)c(OC(=O)c2cc(O)c(O)c(O)c2)c1)c1cc(O)c(O)c(OC(=O)c2cc(O)c(O)c(O)c2)c1 [TANNIC ACID] | -2.40 |

Switching to the query record.
Lab note: measured log10(DBIL) of CCOc1ccc(NC(C)=O)cc1 [PHENACETIN] was -2.00

----------
Below, each entry is listed alongside its reported Fbg.
Species on record: Rattus norvegicus
Test: Open TG-GATES - Regimen: Single
Assay type: toxicity, organism-based, Sprague-Dawley
Design: regimen Single, gender Male, age 6 weeks
Settings: in vivo, po, 0 mg/kg, 24 h, tissue Blood, route gavage, dose level Control
Give just the numeric value; mg/dL need not be written.

Below: 5 compounds and their reported Fbg.
| compound | measureUnit | Fbg |
| --- | --- | --- |
| CN1C(=O)CCS(=O)(=O)C1c1ccc(Cl)cc1 (stereo not drawn) | mg/dL | 283.8 |
| CN/C(=N/CCSCc1nc[nH]c1C)NC#N | mg/dL | 218.6 |
| CCOc1ccc(NC(C)=O)cc1 | mg/dL | 296.2 |
| COC(=O)C1=C(C)NC(C)=C(C(=O)OC)C1c1ccccc1[N+](=O)[O-] | mg/dL | 285.8 |
| Cc1nnc2n1-c1ccc(Cl)cc1C(c1ccccc1Cl)=NC2 | mg/dL | 279.8 |

Lab note: measured Fbg of NC1=NC(=O)C(c2ccccc2)O1 (stereo not drawn) was 274.6

Lab note: measured Fbg of CN(C)CCC(c1ccc(Cl)cc1)c1ccccn1 (stereo not drawn) was 292.6

Lab note: measured Fbg of `O=C(OC[C@H]1O[C@@H](OC(=O)c2cc(O)c(O)c(OC(=O)c3cc(O)c(O)c(O)c3)c2)[C@H](OC(=O)c2cc(O)c(O)c(OC(=O)c3cc(O)c(O)c(O)c3)c2)[C@@H](OC(=O)c2cc(O)c(O)c(OC(=O)c3cc(O)c(O)c(O)c3)c2)[C@@H]1OC(=O)c1cc(O)c(O)c(OC(=O)c2cc(O)c(O)c(O)c2)c1)c1cc(O)c(O)c(OC(=O)c2cc(O)c(O)c(O)c2)c1` was 218.4

Lab note: measured Fbg of `CNC(=C[N+](=O)[O-])NCCSCc1ccc(CN(C)C)o1` was 227.4

Lab note: measured Fbg of `Brc1ccccc1` was 270.2
